# pIC50 listing for each entry below
Target sequence: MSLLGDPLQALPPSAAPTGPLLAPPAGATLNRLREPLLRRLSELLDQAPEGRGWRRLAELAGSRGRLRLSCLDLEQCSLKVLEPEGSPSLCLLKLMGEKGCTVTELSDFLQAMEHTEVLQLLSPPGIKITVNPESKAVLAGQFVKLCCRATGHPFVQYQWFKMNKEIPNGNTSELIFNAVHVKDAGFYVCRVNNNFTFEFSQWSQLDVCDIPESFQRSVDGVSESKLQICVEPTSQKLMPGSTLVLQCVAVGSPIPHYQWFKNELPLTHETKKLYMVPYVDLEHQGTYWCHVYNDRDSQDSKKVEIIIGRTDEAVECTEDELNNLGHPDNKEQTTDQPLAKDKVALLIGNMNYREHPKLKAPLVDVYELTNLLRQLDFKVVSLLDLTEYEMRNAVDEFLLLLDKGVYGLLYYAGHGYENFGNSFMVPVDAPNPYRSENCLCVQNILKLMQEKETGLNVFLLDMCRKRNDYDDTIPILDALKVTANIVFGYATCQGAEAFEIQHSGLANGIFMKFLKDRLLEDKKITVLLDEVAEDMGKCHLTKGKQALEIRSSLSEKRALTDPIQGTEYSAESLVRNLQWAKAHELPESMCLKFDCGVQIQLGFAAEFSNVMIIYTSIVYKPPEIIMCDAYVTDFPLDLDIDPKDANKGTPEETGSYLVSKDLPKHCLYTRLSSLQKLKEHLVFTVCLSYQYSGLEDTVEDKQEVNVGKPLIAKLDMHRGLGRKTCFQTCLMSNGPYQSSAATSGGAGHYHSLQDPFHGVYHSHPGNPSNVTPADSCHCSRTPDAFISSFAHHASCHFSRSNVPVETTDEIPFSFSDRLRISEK
pIC50: −log10 of the molar value.

Example entries begin here.
[Q] Suppose we examine the compound O=C(Nc1ccnc(C(F)(F)F)c1)c1snc(-c2cccc3nccn23)c1C1CC1 [I-132] ; what pIC50 value has been reported?
[A] ≥ 6.40

[Q] Entry Cc1c(-c2ccccc2)nsc1C(=O)Nc1cnc(-n2nccn2)c(Cl)c1 [I-3] has what pIC50?
[A] ≥ 6.40

New cases:
[Q] Fill blank: measured pIC50 of the compound CN(C)C(=O)c1ccc(NC(=O)c2snc(-c3ccccc3)c2C2CC2)cc1C(F)(F)F [I-55] is ____.
[A] ≥ 6.40

[Q] Need pIC50, item CC(C)c1nsc(C(=O)Nc2cnc(-n3nccn3)c(Cl)c2)c1C1CC1 [I-60]
[A] ≥ 6.40

[Q] Can you share its pIC50? I mean this compound: Cn1cc2c(-c3nsc(C(=O)Nc4ccc(C(=O)N5CC(O)C5)c(Cl)c4)c3C3CC3)cccc2n1 [I-203]
[A] 6.00 to 6.40

[Q] Item under review: O=C(Nc1cnc(-n2nccn2)c(Cl)c1)c1snc(-c2ncccc2Cl)c1C(F)(F)F [I-19] . Reported pIC50?
[A] ≥ 6.40

[Q] So what does the record say about pIC50 for Cc1cc(NC(=O)c2snc(-c3ccccc3)c2C2CC2)cnc1-n1nccn1 [I-12] ?
[A] ≥ 6.40

[Q] Bench note: what pIC50 did O=C(Nc1ccc(C(=O)N2CCOCC2)c(Cl)c1)c1snc(-c2ccccc2)c1C1CC1 [I-22] show?
[A] ≥ 6.40

====

Quick reference: IC50 of the listed items.
Biological target: Avi-tagged FL MALT-1 (Homo sapiens)
Sequence (Q9UDY8 1-824): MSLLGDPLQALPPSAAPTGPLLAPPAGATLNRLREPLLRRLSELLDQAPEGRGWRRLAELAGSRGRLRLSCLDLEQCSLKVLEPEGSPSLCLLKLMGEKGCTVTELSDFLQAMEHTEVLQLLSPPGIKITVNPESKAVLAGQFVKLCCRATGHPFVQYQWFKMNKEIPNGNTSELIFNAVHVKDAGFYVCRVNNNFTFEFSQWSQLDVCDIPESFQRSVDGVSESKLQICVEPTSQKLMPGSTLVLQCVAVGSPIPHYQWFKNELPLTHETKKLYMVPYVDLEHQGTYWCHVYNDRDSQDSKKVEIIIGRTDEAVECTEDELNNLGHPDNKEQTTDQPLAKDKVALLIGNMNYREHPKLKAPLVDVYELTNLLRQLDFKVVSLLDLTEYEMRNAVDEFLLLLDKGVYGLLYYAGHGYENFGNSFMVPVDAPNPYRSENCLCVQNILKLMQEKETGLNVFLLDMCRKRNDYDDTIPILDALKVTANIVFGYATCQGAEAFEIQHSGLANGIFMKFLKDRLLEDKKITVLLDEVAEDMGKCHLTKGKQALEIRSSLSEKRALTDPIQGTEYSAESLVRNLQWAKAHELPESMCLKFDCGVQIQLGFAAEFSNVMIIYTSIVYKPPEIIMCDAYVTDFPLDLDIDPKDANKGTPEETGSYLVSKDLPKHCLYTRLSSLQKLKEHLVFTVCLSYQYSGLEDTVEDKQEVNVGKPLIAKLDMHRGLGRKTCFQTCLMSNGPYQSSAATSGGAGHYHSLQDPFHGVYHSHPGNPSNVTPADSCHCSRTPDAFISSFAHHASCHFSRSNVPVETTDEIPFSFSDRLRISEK

[Q] For O=C(Nc1cnc(-n2nccn2)c(Cl)c1)c1snc(-c2cccc3ncccc23)c1C(F)(F)F [I-35] , what is its reported IC50?
[A] ≤ 400 nM

[Q] # input compound: N#Cc1cc(NC(=O)c2snc(C3CCOCC3)c2C(F)(F)F)cnc1-n1nccn1 [I-34] ; wanted: its IC50
[A] ≤ 400 nM

[Q] Any idea what its IC50 is? The compound is O=C(Nc1ccnc(C(F)(F)F)c1)c1snc(-c2ccccc2)c1C(F)(F)F [I-15]
[A] ≤ 400 nM

[Q] Quick one: IC50 of O=C(Nc1cncc(C(F)(F)F)c1)c1snc(-c2cccc3ncccc23)c1C1CC1 [I-119] ?
[A] ≤ 400 nM

[Q] What value of IC50 has been recorded for this entry: N#Cc1cncc(NC(=O)c2snc(-c3ccccc3)c2C2CC2)c1 [I-30]
[A] ≤ 400 nM

More entries:
[Q] Reported IC50, compound O=C(Nc1cnc(C(=O)N2CC(O)C2)c(Cl)c1)c1snc(-c2ccccc2)c1C1CC1 [I-58] : ____
[A] ≤ 400 nM

[Q] So what does the record say about IC50 for O=C(Nc1cnc(-n2nccn2)c(Cl)c1)c1snc(-c2ccccc2)c1C(F)(F)F [I-7] ?
[A] ≤ 400 nM

[Q] // returns reported IC50 for input O=C(Nc1ccnc(C(F)(F)F)c1)c1snc(-c2cnccc2F)c1C1CC1 [I-192]
[A] ≤ 400 nM

[Q] If you can, please state the reported IC50 value of Cn1ccc(-c2nsc(C(=O)Nc3cnc(-n4nccn4)c(C#N)c3)c2C(F)(F)F)cc1=O [I-128] .
[A] > 2500 nM

[Q] IC50 for CC(=O)N(C)c1ncc(NC(=O)c2snc(-c3ccccc3)c2C2CC2)cc1C#N [I-51] ?
[A] ≤ 400 nM

[Q] Report IC50 for O=C(Nc1ccnc(C(F)(F)F)c1)c1snc(-c2ccc3[nH]ncc3c2)c1C1CC1 [I-166] please.
[A] ≤ 400 nM

[Q] Requested read-out: IC50. Entry: O=C(Nc1ccnc(C(F)(F)F)c1)c1snc(-c2cccc3ocnc23)c1C1CC1 [I-162]
[A] ≤ 400 nM

[Q] # input compound: COc1ncc(NC(=O)c2snc(-c3ccccc3)c2C2CC2)cc1Cl [I-40] ; wanted: its IC50
[A] ≤ 400 nM
